B1: KCNK9 (parent)
chain: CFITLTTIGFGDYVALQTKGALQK

Variants of: B1
method_description: protein stability index of a GFP-peptide fusion (GPS, HEK-293T) (PSI 1-6); higher = more stable;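 note: lentivirally expressed fusions sorted by FACS into six bins by GFP to DsRed ratio, PSI derived from sequencing read proportions per bin multiplied by bin number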
assay_conditions: c terminus: a fixed tail appended
endpoint: protein stability index
Answers are plain numbers.

Sample records with protein stability index:
variant | protein stability index
I3A | 2.03
I3M | 2.05
D12N | 2.71
F10V | 2.06
C1W | 3.09

Each variant below has a recorded value; state its protein stability index.
1. I8L
2. I8Y
3. D12K
4. G11P
5. T18K
6. L22P
7. A15V

### Response
[3.63, 1.78, 2.82, 1.99, 1.58, 2.56, 2.68]

Each variant below has a recorded value; state its protein stability index.
1. Y13V
2. G11R
3. T7A
4. G9M
5. L5D
6. K19T
7. Y13S

### Response
1: 2.57; 2: 3.04; 3: 4.42; 4: 2.8; 5: 2.42; 6: 4.24; 7: 2.51

Each variant below has a recorded value; state its protein stability index.
1. T4G
2. K19V
3. L22W
4. Y13L

### Response
1: 2.63; 2: 3.26; 3: 2.21; 4: 2.38

Each variant below has a recorded value; state its protein stability index.
1. F10N
2. K19N
3. L16E
4. T4C

### Response
1: 1.58; 2: 4.09; 3: 3.25; 4: 3.91
